- protocol-text: Time taken to achieve Cmax in plasma of athymic nude mouse xenografted with human MIAPaCa2 cells at > 10 mg/kg, po administered as single dose
- Type: ADME, organism-based
- condition-info: read-out: tCmax (converted)
readout-name: Tmax (min)

{"columns": ["substance-smiles", "value-observed"],
 "data": [
  ["C=CC(=O)N1CCN(c2nc(=O)n(-c3c(C)ccnc3C(C)C)c3nc(-c4c(O)cccc4F)c(F)cc23)[C@@H](C)C1", 30]
]}

---

- protocol-text: Solubility of compound in 0.01N HCl at pH 2 incubated for 48 to 72 hrs under shaking conditions by LCMS analysis
- Format: physicochemical
readout-name: log10 solubility thermodynamic (log10 of the value in µM)

{"columns": ["compound", "log10 solubility thermodynamic"],
 "data": [
  ["C=CC(=O)N1CCN(c2nc(=O)n(-c3c(C)ccnc3C(C)C)c3nc(-c4c(O)cccc4F)c(F)cc23)[C@@H](C)C1", 2.70],
  ["C=CC(=O)N1CCN(c2nc(=O)n(-c3ccccc3C(C)C)c3nc(-c4c(O)cccc4F)c(Cl)cc23)[C@@H](C)C1 (stereo in doubt; (R)-18)", 0.85],
  ["C=CC(=O)N1CCN(c2nc(=O)n(-c3c(C(C)C)ccnc3C)c3nc(-c4c(O)cccc4F)c(F)cc23)[C@@H](C)C1", 2.68],
  ["C=CC(=O)N1CCN(c2nc(=O)n(-c3c(C)cccc3C(C)C)c3nc(-c4c(O)cccc4F)c(Cl)cc23)[C@@H](C)C1", 0.95],
  ["C=CC(=O)N1CCN(c2nc(=O)n(-c3ccccc3C(C)C)c3nc(-c4ccccc4O)c(Cl)cc23)[C@@H](C)C1", 1.76],
  ["C=CC(=O)N1CCN(c2nc(=O)n(-c3c(C(C)C)ccnc3C)c3nc(-c4c(O)cccc4F)c(Cl)cc23)[C@@H](C)C1", 2.73],
  ["C=CC(=O)N1CCN(c2nc(=O)n(-c3c(C)cccc3C(C)C)c3nc(-c4c(O)cccc4F)c(F)cc23)[C@@H](C)C1", 1.38]
]}

---

- protocol-text: Half life in BALB/c mouse at 1 mg/kg, iv or 10 mg/kg, po
- Assay type: ADME, organism-based
- condition-info: in vivo
Classification field: Yes = half-life at or over 30 min; No = half-life under 30 min.

{"columns": ["substance-smiles", "label-value"],
 "data": [
  ["C=CC(=O)N1CCN(c2nc(=O)n(-c3ccccc3C(C)C)c3cc(-c4c(O)cccc4F)c(Cl)cc23)CC1", "Yes"],
  ["C=CC(=O)N1CCN(c2nc(=O)n(-c3c(C(C)C)ccnc3C)c3nc(-c4c(O)cccc4F)c(Cl)cc23)[C@@H](C)C1", "No"],
  ["C=CC(=O)N1CCN(c2nc(=O)n(-c3ccccc3C(C)C)c3nc(-c4ccccc4Cl)c(Cl)cc23)[C@@H](C)C1", "Yes"],
  ["C=CC(=O)N1CCN(c2nc(=O)n(-c3scnc3C(C)C)c3nc(-c4c(O)cccc4F)c(Cl)cc23)[C@@H](C)C1", "Yes"],
  ["C=CC(=O)N1CCN(c2nc(=O)n(-c3ccccc3C(C)C)c3cc(-c4c(C)ccc5[nH]ncc45)c(Cl)cc23)CC1", "Yes"],
  ["C=CC(=O)N1CCN(c2nc(=O)n(-c3c(C(C)C)ccnc3C)c3nc(-c4c(O)cccc4F)c(F)cc23)[C@@H](C)C1", "No"],
  ["C=CC(=O)N1CCN(c2nc(=O)n(-c3c(C(C)C)ncnc3C(C)C)c3nc(-c4c(O)cccc4F)c(Cl)cc23)[C@@H](C)C1", "Yes"],
  ["C=CC(=O)N1CCN(c2nc(=O)n(-c3ccccc3C(C)C)c3cc(-c4ccccc4F)c(Cl)cc23)[C@@H](C)C1", "Yes"],
  ["C=CC(=O)N1CCN(c2nc(=O)n(-c3c(C)ncnc3C(C)C)c3nc(-c4c(O)cccc4F)c(Cl)cc23)[C@@H](C)C1", "No"],
  ["C=CC(=O)N1CCN(c2nc(=O)n(-c3ccccc3C(C)C)c3nc(-c4c(O)cccc4F)c(Cl)cc23)CC1", "Yes"]
]}
